test system: p-IKKa levels in L363 (NIK translocated multiple myeloma) cells; assay: Assay 2: Effect of compounds on p-IKKa levels in L363 (NIK translocated multiple myeloma) cells; assay type: cell-based; settings: Homo sapiens, L-363, 6 h, read-out: Assay 2 IC50 (nM), p-IKKa (Ser 176/180) in BAFF stimulated L363 cells with MG132, 6 h; average if tested more than once
measurementType: IC50

Illustrative cases are given below, each with its answer.
In [3]: df
Out[3]:
                                   compound                                    target    result
0  CN1CC[C@@](O)(c2cc(-c3cccc(-c4ccnc(-n5ccc(N)n5)n4)n3)no2)C1=O  p-IKKa levels in L363 (NIK translocated multiple myeloma) cells  > 500 nM
1  CN(C)C[C@@H](Nc1nccc(-c2cccc(-c3cc([C@]4(O)CCN(C)C4=O)on3)n2)n1)c1ccccc1  p-IKKa levels in L363 (NIK translocated multiple myeloma) cells  > 500 nM
2  CN1CC[C@@](O)(c2cc(-c3cccc(-c4ccnc(Nc5cnn6c5OCCC6)n4)n3)no2)C1=O  p-IKKa levels in L363 (NIK translocated multiple myeloma) cells   < 50 nM

Entry Cc1ncc(C#N)cc1Nc1nccc(-c2cccc(-c3cc([C@]4(O)CCN(C)C4=O)on3)n2)n1 ; IC50 = < 50 nM

Entry C[C@@H](Nc1nccc(-c2cccc(-n3cc([C@]4(O)CCN(C)C4=O)nn3)n2)n1)c1cnn(C)c1 (single isomer, unassigned) ; IC50 = > 500 nM

Entry CN1CC[C@@](O)(c2cc(-c3cccc(-c4ccnc(NCCC(F)(F)F)n4)c3)no2)C1=O ; IC50 = > 500 nM

Entry CN1CC[C@@](O)(c2cc(-c3cccc(-c4ccnc(NC(c5cnn(C)c5)C(F)(F)F)n4)n3)no2)C1=O (mixture of isomers) ; IC50 = 50 to 500 nM

----------
system: p-IKKa levels in L363 (NIK translocated multiple myeloma) cells; test: Assay 2: Effect of compounds on p-IKKa levels in L363 (NIK translocated multiple myeloma) cells; format: cell-based; conditions: Homo sapiens, L-363, 6 h, read-out: Assay 2 IC50 (nM), p-IKKa (Ser 176/180) in BAFF stimulated L363 cells with MG132, 6 h; average if tested more than once
measurementType: IC50

Illustrative cases are given below, each with its answer.
>>> print(df.to_string())
                                   compound  measurementtype        result
0  CN(C)C(=O)Cn1ccc(Nc2nccc(-c3cccc(-c4cc([C@]5(O)CCN(C)C5=O)on4)n3)n2)n1             IC50  50 to 500 nM
1  CN1CC[C@@](O)(c2cc(-c3cccc(-c4ccnc(NC5COCC(F)(F)C5)n4)n3)no2)C1=O (mixture of isomers)             IC50  50 to 500 nM
2  C[C@H](Nc1nccc(-c2cccc(-c3cc([C@]4(O)CCN(C)C4=O)on3)n2)n1)c1cn[nH]c1 (single isomer, unassigned)             IC50  50 to 500 nM
3  C[C@H](Nc1nccc(-c2cccc(-c3cc([C@]4(O)CCN(C)C4=O)on3)n2)n1)c1ccc2nccn2c1             IC50      > 500 nM
4  CN1CC[C@@](O)(c2cc(-c3cccc(-c4ccnc(N[C@H]5CCCOC5)n4)n3)no2)C1=O             IC50  50 to 500 nM
5  CN1CC[C@@](O)(c2cc(-c3cccc(-c4ccnc(N[C@@H]5CCCC[C@@H]5O)n4)n3)no2)C1=O (single isomer, unassigned) [Example 336]             IC50      > 500 nM

We next turn to a different compound, shown below.
Entry CCn1cc(Nc2nccc(-c3cccc(-c4cc([C@]5(O)CCN(C)C5=O)on4)n3)n2)cn1 ; IC50 = < 50 nM

----------
Consider the following molecules and their measured IC50 readings.
tested on: p-IKKa levels in L363 (NIK translocated multiple myeloma) cells; assay: Assay 2: Effect of compounds on p-IKKa levels in L363 (NIK translocated multiple myeloma) cells; assay type: cell-based; details: Homo sapiens, L-363, 6 h, read-out: Assay 2 IC50 (nM), p-IKKa (Ser 176/180) in BAFF stimulated L363 cells with MG132, 6 h; average if tested more than once

Illustrative cases are given below, each with its answer.
>>> df
                                   molecule        result
0  CN1CC[C@@](O)(c2cc(-c3cccc(-c4ccnc(Nc5cc6n(n5)CC(C)(C)OC6)n4)n3)no2)C1=O       < 50 nM
1  C[C@@H](Nc1nccc(-c2cccc(-c3cc([C@]4(O)CCN(C)C4=O)on3)n2)n1)c1ncc[nH]1      > 500 nM
2  CN1CC[C@@](O)(c2cc(-c3cccc(-c4ccnc(Nc5ccn(C6CC6)n5)n4)n3)no2)C1=O       < 50 nM
3  CN1CC[C@@](O)(c2cc(-c3cccc(-c4ccnc(Nc5cn(CC(F)F)nc5OC5CC5)n4)n3)no2)C1=O       < 50 nM
4  CN1C(=O)[C@](O)(c2cc(-c3cccc(-c4ccnc(Nc5ccn(C)n5)n4)n3)no2)[C@H]2C[C@H]21  50 to 500 nM
5  COc1ccc(Nc2nccc(-c3cccc(-c4cc([C@]5(O)CCN(C)C5=O)on4)n3)n2)nn1  50 to 500 nM
6  CN1CC[C@@](O)(c2cc(-c3cccc(-c4ccnc(Nc5cnn(C)c5)n4)n3)no2)C1=O       < 50 nM
7  COc1cc(-c2cc([C@]3(O)CCN(C)C3=O)on2)nc(-c2ccnc(Nc3ccn(C)n3)n2)c1       < 50 nM
8  CN1CC[C@@](O)(c2cc(-c3cccc(-c4ccnc(Nc5nnc(C6CC6)o5)n4)n3)no2)C1=O  50 to 500 nM
9  C[C@H](Nc1nccc(-c2cccc(-c3cc([C@]4(O)CCN(C)C4=O)on3)n2)n1)c1ncc[nH]1      > 500 nM

We next turn to a different molecule, shown below.
Entry CN1CC[C@@](O)(c2cc(-c3cccc(-c4ccnc(Nc5c[nH]nc5C(F)(F)F)n4)n3)no2)C1=O ; IC50 = > 500 nM

----------
test system: p-IKKa levels in L363 (NIK translocated multiple myeloma) cells; test: Assay 2: Effect of compounds on p-IKKa levels in L363 (NIK translocated multiple myeloma) cells; type: cell-based; settings: Homo sapiens, L-363, 6 h, read-out: Assay 2 IC50 (nM), p-IKKa (Ser 176/180) in BAFF stimulated L363 cells with MG132, 6 h; average if tested more than once
measurementType: IC50

Illustrative cases are given below, each with its answer.
                                inputsmiles                                    target        result
0  Cc1cn[nH]c1Nc1nccc(-c2cccc(-c3cc([C@]4(O)CCN(C)C4=O)on3)n2)n1  p-IKKa levels in L363 (NIK translocated multiple myeloma) cells  50 to 500 nM
1  CN1CC[C@@](O)(c2cc(-c3cccc(-c4ccnc(Nc5cnn6c5CCC6)n4)n3)no2)C1=O  p-IKKa levels in L363 (NIK translocated multiple myeloma) cells       < 50 nM

Entry CN1CC[C@@](O)(c2cc(-c3cccc(-c4ccnc(Nc5cnn6c5CCCC6)n4)n3)on2)C1=O ; IC50 = < 50 nM

Entry CN1CC[C@@](O)(c2cc(-c3cccc(-c4ccnc(Nc5nc(CN6CCCC6)cs5)n4)n3)no2)C1=O ; IC50 = < 50 nM

----------
system: p-IKKa levels in L363 (NIK translocated multiple myeloma) cells; assay: Assay 2: Effect of compounds on p-IKKa levels in L363 (NIK translocated multiple myeloma) cells; format: cell-based; conditions: Homo sapiens, L-363, 6 h, read-out: Assay 2 IC50 (nM), p-IKKa (Ser 176/180) in BAFF stimulated L363 cells with MG132, 6 h; average if tested more than once
Consider the following compounds and their measured IC50 readings.

Illustrative cases are given below, each with its answer.
In [3]: df
Out[3]:
                                   compound  measurementtype        result
0  CN1CC[C@@](O)(c2cc(-c3cccc(-c4ccnc(Nc5cnn(C)c5C(F)F)n4)n3)no2)C1=O (single isomer, unassigned) [Example 198]             IC50       < 50 nM
1  CN1CC[C@@](O)(c2cc(-c3cccc(-c4ccnc(Nc5cnn(C6COC6)c5)n4)n3)no2)C1=O [Example 264]             IC50       < 50 nM
2  C[C@H](Nc1nccc(-c2cccc(-c3cc([C@]4(O)CCN(C)C4=O)on3)n2)n1)C(=O)N1CCC1 [Example 168]             IC50  50 to 500 nM

We next turn to a different compound, shown below.
Entry CN1CC[C@@](O)(c2cc(-c3cc(C(F)(F)F)cc(-c4ccnc(Nc5cnn(C)c5)n4)n3)no2)C1=O [Example 4] ; IC50 = < 50 nM

Source of measurements: patent US20250282768A1
